Each recorded value in this set is attributed to ChEMBL document CHEMBL1156149.

Run description: Plasma concentration in monkey at 3 mg/kg, po after 8 hrs
Format: ADME, organism-based, Macaca mulatta
Set-up: dose 3 mg/kg, route oral
Experimental parameters: rhesus monkey
Parameter: concentration at 8 h. Scope: all listed entries.

Use the examples below as a reference point.
Any idea what concentration at 8 h was measured for CC1([C@H](NC(=O)NC2([C@H]3CCCS3(=O)=O)CCCCC2)C(=O)N2C[C@@H]3[C@H]([C@H]2C(=O)N[C@@H](CCC2CC2)C(=O)C(=O)NC2CC2)C3(C)C)CCCCC1 ? 303 nM

Which concentration at 8 h is reported for this molecule? CCCC[C@H](NC(=O)[C@@H]1C2C(CN1C(=O)[C@@H](NC(=O)NC1([C@H]3CCCS3(=O)=O)CCCCC1)C1(C)CCCCC1)C2(C)C)C(=O)C(=O)NC1CC1 (single isomer, unassigned) 742 nM

Using the record for CCCC[C@H](NC(=O)[C@@H]1C2C(CN1C(=O)[C@@H](NC(=O)NC1([C@H]3CCCS3(=O)=O)CCCCC1)C(C)(C)C)C2(C)C)C(=O)C(=O)NC1CC1 (single isomer, unassigned) , report its concentration at 8 h. 10 nM

Next:
Can you share its concentration at 8 h? I mean this molecule: CCC[C@H](NC(=O)[C@@H]1C2C(CN1C(=O)[C@@H](NC(=O)NC1([C@H]3CCCS3(=O)=O)CCCCC1)C1(C)CCCCC1)C2(C)C)C(=O)C(=O)NC1CC1 (single isomer, unassigned) 934 nM
